Each recorded value in this set is attributed to patent US5734012A.

Can you tell me IC50 for the items I'm about to list?
# experimental.system: motilin receptor (Oryctolagus cuniculus)
# Construct: from tissue; host or cells: rabbit antral smooth muscle membranes
# Sequence (G1T803 1-400): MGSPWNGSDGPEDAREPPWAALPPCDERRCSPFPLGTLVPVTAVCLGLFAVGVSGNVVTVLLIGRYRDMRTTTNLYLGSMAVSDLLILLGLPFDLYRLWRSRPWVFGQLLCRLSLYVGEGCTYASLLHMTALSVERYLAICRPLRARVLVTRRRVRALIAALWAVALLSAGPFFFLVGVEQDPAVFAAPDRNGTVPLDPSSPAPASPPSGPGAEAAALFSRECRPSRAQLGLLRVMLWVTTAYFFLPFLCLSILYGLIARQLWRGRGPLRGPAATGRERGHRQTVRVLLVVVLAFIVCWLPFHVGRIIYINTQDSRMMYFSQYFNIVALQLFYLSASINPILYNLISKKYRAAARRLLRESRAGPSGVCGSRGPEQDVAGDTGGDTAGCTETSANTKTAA
# assay.method.text: Motilin receptor binding affinity (displacement of [125I-Tyr7,Nle13]motilin(porcine))
# Parameters: species or system rabbit
# test.settings: negative logarithm of concentration displacing 50% of [125I-Tyr7,Nle13]motilin(porcine) bound to rabbit antral smooth muscle membranes; read-out: pIC50 (converted)
Positions of bridges follow the written chain, without caps; N, C: chain ends. Non-standard residues stand in square brackets, D forms with d. Residues, ends and D or L forms follow the SMILES beside them. NMeF = CN[C@@H](Cc1ccccc1)C(=O)O
Answers are plain numbers, in nM.

- compound: "CC[C@H](C)[C@H](NC(=O)[C@@H]1CCCN1C(=O)[C@@H](NC(=O)[C@@H](N)Cc1ccccc1)C(C)C)C(=O)N[C@@H](Cc1ccccc1)C(=O)N[C@H](C(=O)N[C@@H](Cc1ccc(O)cc1)C(=O)NCC(=O)N[C@@H](CCC(=O)O)C(=O)N[C@H]1CC(=O)NCCCC[C@@H](C(N)=O)NC(=O)[C@H](CC(C)C)NC(=O)[C@H](CCCNC(=N)N)NC(=O)[C@H](CCC(N)=O)NC1=O)[C@@H](C)O [SEQ ID NO:6] (H-FVPIFTYGEDQRLK-NH2; lactam 10-14)"
  measurement: 1.51

// below: IC50 requested for another compound
The reported motilin receptor (Oryctolagus cuniculus) IC50 of CC[C@H](C)[C@H](NC(=O)[C@@H]1CCCN1C(=O)[C@@H](NC(=O)[C@H](Cc1ccccc1)NC)C(C)C)C(=O)N[C@@H](Cc1ccccc1)C(=O)N[C@H](C(=O)N[C@@H](Cc1ccc(O)cc1)C(=O)NCC(=O)N[C@@H](CCC(=O)O)C(=O)N[C@H]1CC(=O)NCCCC[C@@H](C(=O)N[C@@H](CCCCN)C(N)=O)NC(=O)[C@H](CC(C)C)NC(=O)[C@H](CCCNC(=N)N)NC(=O)[C@H](C)NC1=O)[C@@H](C)O [SEQ ID NO:8] (H-[NMeF]VPIFTYGEDARLKK-NH2; lactam 10-14) is 1.1

###

Can you tell me half-life at 0.5 mg/ml for the items I'm about to list?
# assay.method.text: In vitro stability testing in 2% hog kidney homogenate
# Assay type: in vitro ADME
# test.settings: pig, kidney or brush border membranes, pH 7
Positions of bridges follow the written chain, without caps; N, C: chain ends. Non-standard residues stand in square brackets, D forms with d. Residues, ends and D or L forms follow the SMILES beside them. NMeF = CN[C@@H](Cc1ccccc1)C(=O)O
Please answer using a numeric value trailed by its unit.

- molecule: "CC[C@H](C)[C@H](NC(=O)[C@@H]1CCCN1C(=O)[C@@H](NC(=O)[C@H](Cc1ccccc1)NC)C(C)C)C(=O)N[C@@H](Cc1ccccc1)C(=O)N[C@H](C(=O)N[C@@H](Cc1ccc(O)cc1)C(=O)NCC(=O)N[C@@H](CCC(=O)O)C(=O)N[C@H]1CCC(=O)NCCCC[C@@H](C(=O)N[C@@H](CCCCN)C(N)=O)NC(=O)[C@H](CC(C)C)NC(=O)[C@@H](CCCNC(=N)N)NC(=O)[C@H](C)NC1=O)[C@@H](C)O [SEQ ID NO:15] (H-[NMeF]VPIFTYGEEA[dR]LKK-NH2; lactam 10-14)"
  measurement: "39 min"

// below: half-life at 0.5 mg/ml requested for another molecule
half-life at 0.5 mg/ml measured on CC[C@H](C)[C@H](NC(=O)[C@@H]1CCCN1C(=O)[C@@H](NC(=O)[C@H](Cc1ccccc1)NC)C(C)C)C(=O)N[C@@H](Cc1ccccc1)C(=O)N[C@H](C(=O)N[C@@H](Cc1ccc(O)cc1)C(=O)NCC(=O)N[C@@H](CCC(=O)O)C(=O)N[C@H]1CCC(=O)NCCCC[C@@H](C(=O)N[C@@H](CCCCN)C(N)=O)NC(=O)[C@H](CC(C)C)NC(=O)[C@H](CCCNC(=N)N)NC(=O)[C@H](C)NC1=O)[C@@H](C)O [SEQ ID NO:10] (H-[NMeF]VPIFTYGEEARLKK-NH2; lactam 10-14) = 21 min
